study.target: T1, protein A (UniProt P38507 37-477)
T1 construct: Bought (Pierce); immobilized on CM5 chip by amine coupling; also called recombinant protein A
measurement.description: SPR (Biacore 3000), VH over immobilized protein A
pKd: −log10 of the molar value.
reported.endpoint: pKd

[[record]]
binder = "HVHAm302 (antibody, V domains shown, Human VH single-domain antibody (wild-type), tested alone; monomer peak used for SPR; tag not specified) VH: QVQLVESGGGLIKPGGSLRLSCAASGDTVSDESMTWVRQAPGKGLEWVSAISSSGGSTYYADSVKGRFTISRDNSKNTVYLQMNSLRAEDTAVYYCVTDNRSCQTSLCTSTTRSWGQGTMVTVSS"
reported_endpoint = "pKd"
quantitative_result = 5.52

[[record]]
binder = "HVHP430S (antibody, V domains shown, Cys49/Cys69 (Kabat) mutant of HVHP430; VH single-domain antibody; tag not specified) VH: QVQLVESGGGLIKPGGSLRLSCAASGFTFSNYAMSWVRQAPGKGLEWVCAISSSGGSTYYADSVKGRFTCSRDNSKNTVYLQMNSLRAEDTAVYYCVREEYRCSGTSCPGAFDIWGQGTMVTVSS"
reported_endpoint = "pKd"
quantitative_result = 5.11

[[record]]
binder = "HVHAm427S (antibody, V domains shown, Cys49/Cys69 (Kabat) mutant of HVHAm427; VH single-domain antibody; tag not specified) VH: QVQLVESGGGLIKPGGSLRLSCAASGVTLSPECMAWVRQAPGKGLEWVCAISSSGGSTYYADSVKGRFTCSRDNSKNTVYLQMNSLRAEDTAVYYCVSCEGENAFWGQGTMVTVSS"
reported_endpoint = "pKd"
quantitative_result = 5.40

[[record]]
binder = "HVHAm431 (antibody, V domains shown, Human VH single-domain antibody (wild-type), tested alone; tag not specified) VH: QVQLVESGGGLIKPGGSLRLSCAASGYTVSSECMGWVRQAPGKGLEWVSAISSSGGSTYYADSVKGRFTISRDNSKNTVYLQMNSLRAEDTAVYYCVRDSKNCHDKDCTRPYCSWGQGTMVTVSS"
reported_endpoint = "pKd"
quantitative_result = 5.40


Ref: patent US20170044238A1
